Reference source for all entries: PubChem BioAssay (NCI)

Listed below: TGI values for each entry.
System: SK-OV-3 ovarian
assay.overview: NCI tumour cell line growth inhibition, 48 h

Recorded TGI, per entry:
# molecule, target.or.system, TGI
records = [
    ("C=C(C)[C@@H]1CC[C@]2(CN)CC[C@]3(C)[C@H](CC[C@@H]4[C@@]5(C)CCCNC(C)(C)[C@@H]5CC[C@]43C)[C@@H]12", "SK-OV-3 ovarian", "3.4 µM"),
    ("O=C(NCCCl)O/N=C/c1cccnc1", "SK-OV-3 ovarian", "> 100 µM"),
    ("Cn1ncc2c(NCc3ccccc3)ncnc21", "SK-OV-3 ovarian", "> 100 µM"),
    ("COc1ccc(/C=N/NC(=O)c2ccc(O)c(CN(C)C)c2)cc1", "SK-OV-3 ovarian", "> 100 µM"),
    ("N#CC(c1ccccc1)N(CCOCCOCCN(C(=O)c1ccccc1)C(C#N)c1ccccc1)C(=O)c1ccccc1 (stereo unspecified)", "SK-OV-3 ovarian", "> 100 µM"),
    ("Cc1nc2c(N)ncnc2o1", "SK-OV-3 ovarian", "> 100 µM"),
]

Record summary for COC(=N)c1csc(C2OC(CO)C(O)C2O)n1 (stereo unspecified) : reported TGI = > 100 µM

Record summary for O=C1C(=Nc2ccc(Nc3ccccc3)cc2)Oc2ccccc21 : reported TGI = 23 µM

Record summary for C=C(CN(C)Cc1ccccc1)c1ccc(NC(=O)c2ccc(C(=C)CN(C)Cc3ccccc3)cc2)cc1 : reported TGI = > 100 µM

Record summary for CCOC(=O)Nc1c(C)nc2ccccn12 : reported TGI = > 100 µM

Record summary for CC(C)(C)N=C(N)NC#N : reported TGI = > 100 µM
